Reported IC50 values, Butyrylcholinesterase (Equus caballus, UniProt Q9N1N9).
Just the number please, in nM, no unit attached.

Solved entries:
>>> reported("O=C(CO[N+](=O)[O-])NCCCNc1c2c(nc3ccccc13)CCCC2")
13.5
>>> reported("CCCNCCCCNc1c2c(nc3ccccc13)CCCC2")
7.2
>>> reported("O=[N+]([O-])OCCCNCCCCNc1c2c(nc3ccccc13)CCCC2")
9.9
>>> reported("O=[N+]([O-])OCCNCCCCCNc1c2c(nc3ccccc13)CCCC2")
13.3
>>> reported("O=[N+]([O-])OCCCNCCCCCNc1c2c(nc3ccccc13)CCCC2")
14.3

Task item: Bench note: what IC50 did O=[N+]([O-])OCCNCCCCCCCCNc1c2c(nc3ccccc13)CCCC2 show?
Reply: 17

Task item: Bench note: what IC50 did O=[N+]([O-])OCCNCCNc1c2c(nc3ccccc13)CCCC2 show?
Reply: 7.3

###

# Tested on: Rattus norvegicus
# measurement_description: Effect on scopolamine-induced memory impairment in iv dosed Wistar rat assessed as decrease in time spent for exploration of the bait at the end of the eight-arm radial maze for 5 days
# Type: functional, organism-based
Active and inactive are the calls of the source. The calls are words filed in the database; no cut-off is given here.
The reply should be one of these categories: YES for active, NO for inactive

These solved cases illustrate the format of a correct answer.
>>> answer_label("O=[N+]([O-])OCCNCCNc1c2c(nc3ccccc13)CCCC2")
"YES"
>>> answer_label("CCCNCCCCNc1c2c(nc3ccccc13)CCCC2")
"NO"
>>> answer_label("O=[N+]([O-])OCCCNCCCCNc1c2c(nc3ccccc13)CCCC2")
"YES"

Kindly consider the entry below.
Task item: Would you mind telling me which call this test gave O=C(CO[N+](=O)[O-])NCCCNc1c2c(nc3ccccc13)CCCC2 ?
Reply: YES

###

# tgt: Butyrylcholinesterase (Equus caballus, UniProt Q9N1N9)
# Sequence (Q9N1N9 whole entry): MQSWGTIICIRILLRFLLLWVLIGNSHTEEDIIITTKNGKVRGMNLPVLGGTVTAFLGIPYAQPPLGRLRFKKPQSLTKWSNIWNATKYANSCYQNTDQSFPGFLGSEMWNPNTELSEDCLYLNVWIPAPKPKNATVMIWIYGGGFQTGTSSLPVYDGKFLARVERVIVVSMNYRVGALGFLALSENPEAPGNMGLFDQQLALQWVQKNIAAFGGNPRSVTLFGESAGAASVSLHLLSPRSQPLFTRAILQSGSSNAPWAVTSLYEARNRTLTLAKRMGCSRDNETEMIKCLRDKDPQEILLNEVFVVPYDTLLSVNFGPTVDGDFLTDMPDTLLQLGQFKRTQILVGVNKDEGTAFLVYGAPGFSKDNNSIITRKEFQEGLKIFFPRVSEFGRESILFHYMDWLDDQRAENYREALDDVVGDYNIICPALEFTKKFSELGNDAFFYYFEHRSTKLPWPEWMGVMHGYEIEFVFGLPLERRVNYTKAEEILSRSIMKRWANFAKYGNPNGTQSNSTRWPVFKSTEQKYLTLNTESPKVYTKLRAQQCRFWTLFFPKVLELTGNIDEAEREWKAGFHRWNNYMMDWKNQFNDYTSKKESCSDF
observed_property: IC50 (nM)
Just the number please, in nM, no unit attached.

Solved entries:
>>> reported("O=[N+]([O-])OCCCNCCNc1c2c(nc3ccccc13)CCCC2")
18.1
>>> reported("O=[N+]([O-])OCCCCCCNCCCCCCCCNc1c2c(nc3ccccc13)CCCC2")
12.9

Now consider a different compound.
Task item: GET /values?readout=IC50&system=Butyrylcholinesterase (Equus caballus, UniProt Q9N1N9)&item= O=[N+]([O-])OCCCNCCCCCCCCNc1c2c(nc3ccccc13)CCCC2
Reply: 14.8
